Target: Glucocorticoid receptor (Homo sapiens) (UniProt P04150)
Sequence (P04150 whole entry, looked up): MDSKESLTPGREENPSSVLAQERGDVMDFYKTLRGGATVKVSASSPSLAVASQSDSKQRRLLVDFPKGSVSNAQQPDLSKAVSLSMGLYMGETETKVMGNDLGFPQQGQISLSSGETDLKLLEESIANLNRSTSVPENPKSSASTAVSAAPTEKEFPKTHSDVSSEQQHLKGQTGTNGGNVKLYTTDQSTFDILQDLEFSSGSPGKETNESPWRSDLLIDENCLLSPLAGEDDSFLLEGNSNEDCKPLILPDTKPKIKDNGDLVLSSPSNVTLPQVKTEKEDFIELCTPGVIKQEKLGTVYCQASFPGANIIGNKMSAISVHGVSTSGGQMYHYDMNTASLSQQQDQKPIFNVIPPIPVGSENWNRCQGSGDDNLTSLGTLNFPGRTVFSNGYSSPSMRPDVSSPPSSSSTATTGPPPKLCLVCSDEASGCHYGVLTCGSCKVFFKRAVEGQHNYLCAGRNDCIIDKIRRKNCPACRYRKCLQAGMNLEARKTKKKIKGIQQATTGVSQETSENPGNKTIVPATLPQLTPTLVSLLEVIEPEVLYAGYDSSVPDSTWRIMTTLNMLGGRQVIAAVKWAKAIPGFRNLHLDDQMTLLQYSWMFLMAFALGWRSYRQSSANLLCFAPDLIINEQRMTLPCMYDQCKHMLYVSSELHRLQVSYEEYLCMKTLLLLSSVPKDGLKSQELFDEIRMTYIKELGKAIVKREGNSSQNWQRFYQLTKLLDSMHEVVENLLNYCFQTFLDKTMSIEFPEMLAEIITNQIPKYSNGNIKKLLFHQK
Assay: qHTS assay for small molecule agonists of glucocorticoid receptor signaling (AID 588532);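 note: 100% = dexamethasone at 0.1 µM and 0% = DMSO only wells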
Settings: HeLa MMTV-bla, beta-lactamase ratio, agonist, 18 h; hits give high values; percent of dexamethasone control, DMSO zero
Records with an inconclusive call do not appear.
Catalogue of activation values

>  <COMPOUND>
COCCOCCOCCOC

>  <activation [%]>
-5.4

$$$$
>  <COMPOUND>
CCCCOCCOCCOC(C)=O

>  <activation [%]>
-1.04

$$$$
>  <COMPOUND>
CCOC(=O)C(C)Oc1ccc(Oc2cnc3cc(Cl)ccc3n2)cc1 (centres undefined)

>  <activation [%]>
-6.64

$$$$
>  <COMPOUND>
COC(=O)CSc1cc(N=c2sc(=O)n3n2CCCC3)c(F)cc1Cl

>  <activation [%]>
-2.45

$$$$
>  <COMPOUND>
COc1cc(Cl)c(OC)cc1N

>  <activation [%]>
-0.0557

$$$$
>  <COMPOUND>
CC(=O)Nc1ccc(N=Nc2cc(C)ccc2O)cc1

>  <activation [%]>
-3.33

$$$$
>  <COMPOUND>
O=C(O)c1ccc(C(=O)O)c(C(=O)O)c1

>  <activation [%]>
-1.87

$$$$
>  <COMPOUND>
Cl[Si](Cl)(c1ccccc1)c1ccccc1

>  <activation [%]>
0.877

$$$$
>  <COMPOUND>
CCCCCCC(C)(C)S

>  <activation [%]>
-11

$$$$
